Biological target: T1, 4H454-bN
T1 chain: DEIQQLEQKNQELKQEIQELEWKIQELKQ
Test: two-hybrid library CCNG1;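 further: natural log of median RNA to DNA barcode read ratio; higher means stronger binding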
Assay Endpoint: interaction score
Please respond with just the number, no unit label.

Consider the worked cases shown below.
DEIQQLEQKIQELKQEIQELKWENQELEQ [4H331-bN]: -0.999
DEIQQLEQKNQELKQEIQELEWKIQELKQ [4H454-bN]: -0.79
DENQQLEQKIQELKQKIQELKWENQELEQ [4H1387-bN]: -0.28

Q: Consider the binder DENQQLKQKIQELEQKIQELEWENQELKQ [4H1828-bN] and give its measured interaction score.
Result: -1.22

Q: Item under review: DKNQQLEQKIQELKQKIQELEWENQELEQ [4H3427-bN] . Reported interaction score?
Result: -0.734

Q: May I ask what interaction score has been recorded for DKNQQLKQENQELKQEIQELEWKIQELKQ [4H3782-bN] ?
Result: -0.771

Q: Record request: interaction score value, item DKNQQLKQKIQELEQEIQELKWKNQELEQ [4H3855-bN]
Result: -0.525
